Target: FPRL1 (Homo sapiens, UniProt P25090)
Sequence (P25090 1-351): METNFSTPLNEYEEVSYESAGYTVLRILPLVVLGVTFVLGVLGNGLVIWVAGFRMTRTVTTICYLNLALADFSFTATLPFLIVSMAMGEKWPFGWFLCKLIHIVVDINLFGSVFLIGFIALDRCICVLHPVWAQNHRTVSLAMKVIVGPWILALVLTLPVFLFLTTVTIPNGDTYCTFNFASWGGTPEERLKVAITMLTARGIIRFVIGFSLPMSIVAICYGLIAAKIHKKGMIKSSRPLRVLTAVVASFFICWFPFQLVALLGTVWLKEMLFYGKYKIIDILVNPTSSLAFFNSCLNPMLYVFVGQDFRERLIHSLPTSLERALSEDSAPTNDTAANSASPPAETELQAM
Experiment: Ca2+ mobilization in RBL-FPRL1 cells
MEASURED ENDPOINT: pEC50
Give bare numbers, as −log10 of the molar value.

• O=C(N/N=C/c1ccc(-c2cccc(Br)c2)o1)c1cccnc1 = 4.72

Let us move to another entry and its pEC50.
Would you kindly share the measured pEC50 for O=C(N/N=C/c1ccc(-c2cccc(C(F)(F)F)c2)o1)c1ccc(F)cc1 ?
4.74

* * *

Tested on: J774.A1 macrophages
Test: TNF-α production in J774.A1 macrophages (ELISA)
Type: cell-based, murine
Details: Mus musculus, J774.A1, 24 h; 50 μM compound, above response to vehicle (DMSO) control; Table 5 numbering; N.A. = inactive; read-out: FI (fold-increase of macrophage TNF-α production)
MEASURED ENDPOINT: fold induction at 50 µM
Numbers only.

Known results for compounds:
- CN(C)c1ccc(/C=N\NC(=O)c2ccc([N+](=O)[O-])cc2)cc1 [Compound 53]: 25
- COc1cc(/C=N\NC(=O)c2ccc3c(c2)OCO3)ccc1OCc1ccccc1 [Compound 54]: 7
- O=C(N/N=C/c1ccc(-c2cccc(Br)c2)o1)c1cccnc1 [Compound 1]: 50
- O=C(N/N=C/c1ccc(-c2cccc(C(F)(F)F)c2)o1)c1ccc(Br)cc1 [Compound 52]: 35

Would you kindly share the measured fold induction at 50 µM for Cc1ccc(-c2ccc(/C=N/NC(=O)c3ccncc3)o2)cc1Cl [Compound 51] ?
50

* * *

Target: human FPR (Homo sapiens)
Sequence (P21462 1-350): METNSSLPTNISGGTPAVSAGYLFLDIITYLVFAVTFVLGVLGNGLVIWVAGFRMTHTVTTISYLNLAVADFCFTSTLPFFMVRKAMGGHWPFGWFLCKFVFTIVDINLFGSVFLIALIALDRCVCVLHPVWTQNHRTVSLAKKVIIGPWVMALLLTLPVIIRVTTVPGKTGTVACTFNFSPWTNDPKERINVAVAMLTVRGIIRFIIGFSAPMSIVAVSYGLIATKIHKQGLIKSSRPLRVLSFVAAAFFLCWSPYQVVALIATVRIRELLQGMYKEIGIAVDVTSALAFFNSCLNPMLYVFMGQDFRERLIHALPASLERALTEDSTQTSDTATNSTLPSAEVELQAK
Test: Ca2+ mobilization in RBL-FPR cells
MEASURED ENDPOINT: pEC50
One number for each entry, as −log10 of the molar value.

Would you kindly share the measured pEC50 for COc1cc(/C=N\NC(=O)c2ccc3c(c2)OCO3)ccc1OCc1ccccc1 ?
5.18

Data credit: patent US20100035932A1
